Quick reference: Ki of the listed items.
Molecular target: human serotonin transporter (SERT) (Homo sapiens (Human), UniProt P31645)
Assay: Human serotonin transporter (SERT) binding test
Conditions: [3H]-citalopram, h-SERT/CHO cell membrane; read-out: h-SERT binding inhibition constant Ki

{"columns": ["molecule", "Ki / nM"],
 "data": [
  ["CNCc1cc(OCc2ccc(F)cc2C)n(C(C)C2CCCCC2)n1 (centres unmarked) [Example 302]", 1.4],
  ["CNCc1cc(OCc2cc(Cl)ccc2F)n(C(C)C2CCCC2)n1 (centres unmarked) [Example 291]", 1.2],
  ["CNCc1nn(CC2CCCCC2)c(OCc2cc(F)ccc2F)c1F [Example 351]", 0.98],
  ["CNCc1cc(OCc2ccccc2C)n(C(C)C2CCCCC2)n1 (centres unmarked) [Example 298]", 0.56],
  ["CNCc1cc(OCc2cc(F)ccc2F)n(CC2CC3CCC2C3)n1 (centres unmarked) [Example 117]", 0.5],
  ["CNCc1cc(OCc2cc(Cl)ccc2F)n(CC2CC3CCC2C3)n1 (centres unmarked) [Example 118]", 2],
  ["CNCc1cc(OCc2ccc(F)cc2)n(C(C)C2CCCCC2)n1 (centres unmarked) [Example 295]", 0.95],
  ["CNCc1cc(OCc2ccccc2F)n(C(C)C2CCCCC2)n1 (centres unmarked) [Example 293]", 0.67],
  ["CNCc1cc(OCc2cc(Cl)ccc2F)n(C(C)C2CCCCC2)n1 (centres unmarked) [Example 304]", 1.3],
  ["CNCc1cc(OCc2cc(F)ccc2F)n(Cc2ccc(Cl)cc2)n1 [Example 224]", 1.5],
  ["CNCc1cc(OCc2ccccc2C#N)n(CC2CCCC2)n1 [Example 162]", 7.8],
  ["CNCc1cc(OCc2ccccc2F)n(CC2CCCCC2)n1 [Example 20]", 1.6],
  ["CNCc1cc(OCc2ccccc2)n(CC2(C)CCCCC2)n1 [Example 331]", 1.3],
  ["CNCc1cc(OCc2ccc(F)cc2F)n(C(C)C2CCCCC2)n1 (centres unmarked) [Example 300]", 1.8],
  ["CNCc1cc(OCc2cc(F)ccc2Cl)n(CC2CCCCC2)n1 [Example 37]", 0.89],
  ["CNCc1cc(OCc2cc(F)ccc2F)n(CC2CCC(F)(F)CC2)n1 [Example 124]", 0.71],
  ["CNCc1cc(OCc2cc(F)ccc2F)n(CC2(F)CCCCC2)n1 [Example 127]", 1.3],
  ["CNCc1cc(OCc2ccc(F)cc2Cl)n(C(C)C2CCCCC2)n1 (centres unmarked) [Example 301]", 1.3],
  ["CNCc1cc(OCc2cccc(C)c2)n(C(C)C2CCCCC2)n1 (centres unmarked) [Example 299]", 1.4],
  ["CNCc1cc(OCc2ccc(F)cc2C)n(CC2CCCCO2)n1 (centres unmarked) [Example 108]", 1.9]
]}

====

Target: human serotonin transporter (SERT) (Homo sapiens (Human))
Experiment: Human serotonin transporter (SERT) binding test
Details: [3H]-citalopram, h-SERT/CHO cell membrane; read-out: h-SERT binding inhibition constant Ki
pKi: −log10 of the molar value.
Quick list: pKi per entry.

{"columns": ["molecule", "pKi"],
 "data": [
  ["CNCc1cc(OCc2cc(F)ccc2F)n(CC2CCCC2)n1.Cl [Example 147]", 9.21],
  ["CNCc1cc(OCc2cc(C)ccc2F)n(C(C)C2CCCCC2)n1 (centres unmarked) [Example 305]", 8.70],
  ["CNCc1cc(OCc2cc(Cl)ccc2Cl)n(CC2CCCCC2)n1 [Example 38]", 8.62],
  ["CNCc1cc(OCc2ccc(F)cc2Cl)n(CC2CCCCC2)n1 [Example 30]", 8.82],
  ["CNCc1cc(OCc2ccccc2Cl)n(CC2CCCC2)n1 [Example 138]", 8.74],
  ["CNCc1cc(OCc2cccc(Cl)c2)n(CC2OC3CCC2CC3)n1 (centres unmarked) [Example 508]", 8.09],
  ["CNCc1cc(OCc2ccccc2)n(C(C)C2CCCCC2)n1 (centres unmarked) [Example 292]", 9.02],
  ["CNCc1cc(OCc2cc(F)ccc2F)n(C(C)C2CCCCC2)n1 (centres unmarked) [Example 303]", 9.34]
]}
